Values compiled from PubChem BioAssay (Tox21).

assayedSystem: Cytochrome P450 2C19 (Homo sapiens)
experimentDescription: Cytochrome P450 Family 2 Subfamily C Member 19 (CYP2C19) small molecule antagonists: luciferase reporter qHTS assay (AID 1671197); further: nearly all actives have a fitted effect of over 65% in size; further: potency means the concentration at half of the fitted maximal effect
runConditions: P450-Glo CYP2C19 enzyme, luciferin luminescence, 1 h; series mostly up to 115 µM
Inconclusive results are not listed. Calls of active or inactive are those of the source. The call rests on the fitted dose curve; in most records, active means well fitted inhibition curve with a large enough effect in the repeat runs; inconclusive means weak or mixed curves; inactive means no such curve, though single readings can be large or run the other way.
reportedProperty: Potency

{"molecule": "Cl/C=C/CCl", "reportedProperty": "Potency", "dataValue": "inactive"}
{"molecule": "O=C(O)C(Cl)Br (stereo not given)", "reportedProperty": "Potency", "dataValue": "inactive"}
{"molecule": "COC[C@@H](NC(C)=O)C(=O)NCc1ccccc1", "reportedProperty": "Potency", "dataValue": "inactive"}
{"molecule": "COc1ccccc1OC", "reportedProperty": "Potency", "dataValue": "79.6 µM (active)"}
{"molecule": "Oc1ccc2c3c1O[C@H]1[C@@H](O)C=C[C@H]4[C@@H](C2)NCC[C@@]341", "reportedProperty": "Potency", "dataValue": "inactive"}
{"molecule": "O=CCCl", "reportedProperty": "Potency", "dataValue": "inactive"}
{"molecule": "CC(C)(N)Cc1ccc(Cl)cc1", "reportedProperty": "Potency", "dataValue": "inactive"}
{"molecule": "N=C(N)[Se]", "reportedProperty": "Potency", "dataValue": "inactive"}
{"molecule": "[O-][Br+2]([O-])O", "reportedProperty": "Potency", "dataValue": "inactive"}
{"molecule": "O=C(O)CBr", "reportedProperty": "Potency", "dataValue": "inactive"}
{"molecule": "CNC(=O)Oc1ccccc1C(C)C", "reportedProperty": "Potency", "dataValue": "39.9 µM (active)"}
{"molecule": "CCC(=O)c1ccc(Cl)cc1", "reportedProperty": "Potency", "dataValue": "inactive"}
{"molecule": "CN(C)C(=O)Oc1cc(OC(=O)N(C)C)cc(C(O)CNC(C)(C)C)c1 (stereo not given)", "reportedProperty": "Potency", "dataValue": "inactive"}
{"molecule": "Cn1c(N)nc2c3cccnc3ccc21", "reportedProperty": "Potency", "dataValue": "inactive"}
{"molecule": "CCCN1CCC[C@@H]2Cc3[nH]ncc3C[C@H]21", "reportedProperty": "Potency", "dataValue": "inactive"}
{"molecule": "CC(C)(C)C(=O)C(Cl)Cl", "reportedProperty": "Potency", "dataValue": "inactive"}
{"molecule": "C=CCCC#N", "reportedProperty": "Potency", "dataValue": "61.7 µM (active)"}
{"molecule": "CC(C)(N)Cc1ccccc1Cl", "reportedProperty": "Potency", "dataValue": "inactive"}
{"molecule": "Cn1c(CCCC(=O)O)nc2cc(N(CCCl)CCCl)ccc21", "reportedProperty": "Potency", "dataValue": "inactive"}
{"molecule": "Clc1ccc(C(Cl)(Cl)Cl)cn1", "reportedProperty": "Potency", "dataValue": "inactive"}
{"molecule": "COP(=O)(O)OC", "reportedProperty": "Potency", "dataValue": "18.5 µM (active)"}
{"molecule": "CC(C)c1ccc(O)cc1", "reportedProperty": "Potency", "dataValue": "inactive"}
{"molecule": "CCCOC(=O)Cc1ccc(OCC(=O)N(CC)CC)c(OC)c1", "reportedProperty": "Potency", "dataValue": "inactive"}
{"molecule": "CS(=O)(=O)c1ccc(C(=O)C2C(=O)CCCC2=O)c(Cl)c1COCC(F)(F)F", "reportedProperty": "Potency", "dataValue": "inactive"}
{"molecule": "CCC1(c2cccc(O)c2)CCCCN(C)C1 (stereo not given)", "reportedProperty": "Potency", "dataValue": "inactive"}
{"molecule": "NC(=O)CS(=O)C(c1ccccc1)c1ccccc1 (stereo not given)", "reportedProperty": "Potency", "dataValue": "24.5 µM (active)"}
{"molecule": "BrCC1CO1 (stereo not given)", "reportedProperty": "Potency", "dataValue": "inactive"}
{"molecule": "CCOC(=O)C(Cl)Cc1cc(-n2nc(C)n(C(F)F)c2=O)c(F)cc1Cl (stereo not given)", "reportedProperty": "Potency", "dataValue": "5.64 µM (active)"}
{"molecule": "O=C(Cl)C(Cl)(Cl)Cl", "reportedProperty": "Potency", "dataValue": "inactive"}
{"molecule": "CN(C)C1CCCCC1", "reportedProperty": "Potency", "dataValue": "inactive"}
{"molecule": "CCCCOC(C)=O", "reportedProperty": "Potency", "dataValue": "inactive"}
{"molecule": "CN(C)CCN(C)C", "reportedProperty": "Potency", "dataValue": "inactive"}
{"molecule": "CCC(C(N)=O)N1CCCC1=O (stereo not given)", "reportedProperty": "Potency", "dataValue": "inactive"}
{"molecule": "O=C/C=C/c1ccco1", "reportedProperty": "Potency", "dataValue": "inactive"}
{"molecule": "Cc1cccc2sc3nncn3c12", "reportedProperty": "Potency", "dataValue": "inactive"}
{"molecule": "CC(Cl)(Cl)Cl", "reportedProperty": "Potency", "dataValue": "inactive"}
{"molecule": "CC1NCCOC1c1ccccc1 (stereo not given)", "reportedProperty": "Potency", "dataValue": "inactive"}
{"molecule": "CCOC(=O)COc1ccc(Cl)cc1Cl", "reportedProperty": "Potency", "dataValue": "22.4 µM (active)"}
{"molecule": "CCOP(=S)(OCC)SCCl", "reportedProperty": "Potency", "dataValue": "35.6 µM (active)"}
{"molecule": "N#CN", "reportedProperty": "Potency", "dataValue": "inactive"}
